Provide the recorded Abs. Infection at 1.3 µM for the entries that follow.
- System: HIV-1 infection of TZM-bl cells
- test-description: HIV-1 infectivity enhancement assay, β-galactosidase luminescence
- Format: cell-based
- settings: peptide 1.3 µM, mean of n = 3, Figure 4A
Respond numerically, and do not add a unit to the figure.

Find the recorded Abs. Infection at 1.3 µM belonging to KFKFQFF and report it.
2850

Find the recorded Abs. Infection at 1.3 µM belonging to CSISIQI and report it.
3087

Find the recorded Abs. Infection at 1.3 µM belonging to KAKAQA and report it.
146.7

Find the recorded Abs. Infection at 1.3 µM belonging to HHHHKIKIKIKIYYYY and report it.
20713.33333

* * *

Provide the recorded Log10 Count Rate for the entries that follow.
- test-description: Turbidity, derived count rate of scattered light
- Assay type: physicochemical
- settings: Log10 of derived count rate of scattered light (turbidity)

Find the recorded Log10 Count Rate belonging to CKIKIQIRGD and report it.
3.762

Find the recorded Log10 Count Rate belonging to CKFKFQFW and report it.
4.466

Find the recorded Log10 Count Rate belonging to KIKIQII and report it.
3.017

Find the recorded Log10 Count Rate belonging to FKFDKFKFDK and report it.
1.6545

Find the recorded Log10 Count Rate belonging to KIKIQIC and report it.
2.992

Find the recorded Log10 Count Rate belonging to HGEHGEHGE and report it.
2.532

Find the recorded Log10 Count Rate belonging to KKFQKKFQ and report it.
1.867

Find the recorded Log10 Count Rate belonging to KIKIKIQI and report it.
3

Find the recorded Log10 Count Rate belonging to KYKGAIIGNIK and report it.
1.644

Find the recorded Log10 Count Rate belonging to RGDCKFKFQF and report it.
3.1264

* * *

Provide the recorded Log10 Count Rate for the entries that follow.
- test-description: Turbidity, derived count rate of scattered light
- Assay type: physicochemical
- settings: turbidity, log10 of derived count rate of scattered light

Find the recorded Log10 Count Rate belonging to CHLHLQL and report it.
3.062

Find the recorded Log10 Count Rate belonging to CRFRFQF and report it.
2.592

Find the recorded Log10 Count Rate belonging to HLHLPLL and report it.
2.301

Find the recorded Log10 Count Rate belonging to KNERIKNERI and report it.
2.508

Find the recorded Log10 Count Rate belonging to KFKFQF and report it.
2.263

Find the recorded Log10 Count Rate belonging to PPFHPPPFHP and report it.
1.772

Find the recorded Log10 Count Rate belonging to NMWQKIKIQI and report it.
4.001

Find the recorded Log10 Count Rate belonging to KIKIQIN and report it.
1.638

Find the recorded Log10 Count Rate belonging to NMWQKAKAQA and report it.
2.384

Find the recorded Log10 Count Rate belonging to RLRLTLC and report it.
2.0991

Find the recorded Log10 Count Rate belonging to CKFKFQFNM and report it.
3.347

Find the recorded Log10 Count Rate belonging to TKTLTKTL and report it.
2.711

Find the recorded Log10 Count Rate belonging to QCKFKFQFNM and report it.
3.565

Find the recorded Log10 Count Rate belonging to CKFKQFF and report it.
0.4094

Find the recorded Log10 Count Rate belonging to CKFKQFFNMWQ and report it.
3.914

Find the recorded Log10 Count Rate belonging to KFKFQFN and report it.
1.705

Find the recorded Log10 Count Rate belonging to KIKQIIN and report it.
1.806

Find the recorded Log10 Count Rate belonging to KIKIQINMAQ and report it.
3.768

Find the recorded Log10 Count Rate belonging to HRRHFRHKITKKK and report it.
0.9777

Find the recorded Log10 Count Rate belonging to QCKAKAQANM and report it.
2.31

Find the recorded Log10 Count Rate belonging to QCKFKQFFNMWQ and report it.
4.277

* * *

- test-description: Turbidity, derived count rate of scattered light
- Assay type: physicochemical
- settings: turbidity, derived count rate of scattered light, log10; data of Figure 2D
# binarize Log10 Count Rate: threshold 3 inclusive, high side 1 (yes), low side 0 (no)

Does the substance KNERIKNERI have recorded Log10 Count Rate that is 3 or more?
0 (no)

Does the substance SISISRRI have recorded Log10 Count Rate that is 3 or more?
0 (no)

Does the substance HHHHKAKAKAKAYYYY have recorded Log10 Count Rate that is 3 or more?
0 (no)

Does the substance PPFHPPPFHP have recorded Log10 Count Rate that is 3 or more?
0 (no)

Does the substance KIRGKFEKED have recorded Log10 Count Rate that is 3 or more?
0 (no)

Does the substance CKIKIQINMW have recorded Log10 Count Rate that is 3 or more?
1 (yes)

Does the substance KAKQAANMWQ have recorded Log10 Count Rate that is 3 or more?
0 (no)

Does the substance CKIKIQIRGD have recorded Log10 Count Rate that is 3 or more?
1 (yes)

Does the substance KIKIQINMAQ have recorded Log10 Count Rate that is 3 or more?
1 (yes)

Does the substance KIKIQINMWWQ have recorded Log10 Count Rate that is 3 or more?
1 (yes)

Does the substance KFKFQFF have recorded Log10 Count Rate that is 3 or more?
0 (no)

Does the substance KIKIQIN have recorded Log10 Count Rate that is 3 or more?
0 (no)

Does the substance KIKIQINMW have recorded Log10 Count Rate that is 3 or more?
0 (no)

Does the substance KFKFQFNMWQ have recorded Log10 Count Rate that is 3 or more?
0 (no)

Does the substance QCKAKAQANMWQ have recorded Log10 Count Rate that is 3 or more?
0 (no)

Does the substance CKWKWQW have recorded Log10 Count Rate that is 3 or more?
1 (yes)

Does the substance KIKIQINM have recorded Log10 Count Rate that is 3 or more?
0 (no)

Does the substance CKAKAQA have recorded Log10 Count Rate that is 3 or more?
0 (no)

Does the substance KIKIQIMQWN have recorded Log10 Count Rate that is 3 or more?
1 (yes)

Does the substance RLRLTLC have recorded Log10 Count Rate that is 3 or more?
0 (no)

Does the substance KAKAQANM have recorded Log10 Count Rate that is 3 or more?
0 (no)

Does the substance QCKIKIQINMWQ have recorded Log10 Count Rate that is 3 or more?
1 (yes)

Does the substance KIKQIINMWQ have recorded Log10 Count Rate that is 3 or more?
0 (no)

Does the substance KVKVQVVV have recorded Log10 Count Rate that is 3 or more?
0 (no)

Does the substance HGEHGEHGE have recorded Log10 Count Rate that is 3 or more?
0 (no)

Does the substance HGEHGE have recorded Log10 Count Rate that is 3 or more?
0 (no)

Does the substance KFKQFFINMWQ have recorded Log10 Count Rate that is 3 or more?
1 (yes)

Does the substance CKFKFQFNMWQ have recorded Log10 Count Rate that is 3 or more?
0 (no)

Does the substance MKFKFQF have recorded Log10 Count Rate that is 3 or more?
0 (no)

Does the substance MKIKIQINMWQ have recorded Log10 Count Rate that is 3 or more?
1 (yes)

Does the substance KIKIQIW have recorded Log10 Count Rate that is 3 or more?
0 (no)

Does the substance CEIEIQINMWQ have recorded Log10 Count Rate that is 3 or more?
1 (yes)

Does the substance CKIKQIINMWQ have recorded Log10 Count Rate that is 3 or more?
1 (yes)

Does the substance EIEIQINMWQ have recorded Log10 Count Rate that is 3 or more?
1 (yes)

Does the substance CKFKFQF have recorded Log10 Count Rate that is 3 or more?
1 (yes)

Does the substance QCKIKQII have recorded Log10 Count Rate that is 3 or more?
0 (no)

Does the substance RGEKIKIQINM have recorded Log10 Count Rate that is 3 or more?
0 (no)

Does the substance KFKFEFEF have recorded Log10 Count Rate that is 3 or more?
1 (yes)

Does the substance QCKFKQFF have recorded Log10 Count Rate that is 3 or more?
0 (no)

Does the substance KIKIQIRGD have recorded Log10 Count Rate that is 3 or more?
0 (no)

* * *

- test-description: Turbidity, derived count rate of scattered light
- Format: physicochemical
- settings: derived count rate of scattered light (turbidity)
Provide the recorded Count Rate for the entries that follow.

Find the recorded Count Rate belonging to KAKAQANMWQ and report it.
56.17

Find the recorded Count Rate belonging to KVKVQVVV and report it.
163.1

Find the recorded Count Rate belonging to RGDKIKIQIC and report it.
7509

Find the recorded Count Rate belonging to IKVAVKIKIQINM and report it.
4848

Find the recorded Count Rate belonging to EIKIQINM and report it.
2816

Find the recorded Count Rate belonging to MKFKFQF and report it.
124

Find the recorded Count Rate belonging to KIKIQINMW and report it.
239.6

Find the recorded Count Rate belonging to KFKFQFN and report it.
50.7

Find the recorded Count Rate belonging to ILKNLSRSRKIKIQIC and report it.
2392

Find the recorded Count Rate belonging to CKYKYQY and report it.
1061

Find the recorded Count Rate belonging to KIKIQINM and report it.
262.1

Find the recorded Count Rate belonging to CSISIQI and report it.
10241.1

Find the recorded Count Rate belonging to QCKFKQFFNM and report it.
10384.7

Find the recorded Count Rate belonging to KIKQIINM and report it.
2481

Find the recorded Count Rate belonging to KIKIQIMWNQ and report it.
1887

Find the recorded Count Rate belonging to CKFKFQFNMW and report it.
4107

Find the recorded Count Rate belonging to KIKIKIKIWWWW and report it.
12420.6

Find the recorded Count Rate belonging to RGDKIKIQINMC and report it.
1404

Find the recorded Count Rate belonging to RGDKIKIQINMWQ and report it.
1554

Find the recorded Count Rate belonging to HGDKCHGDKC and report it.
12.43

Find the recorded Count Rate belonging to RGDKIRGDKI and report it.
285.8
